target: Dual specificity protein kinase CLK4 (Homo sapiens) (UniProt Q9HAZ1)
Sequence (Q9HAZ1 whole entry, looked up): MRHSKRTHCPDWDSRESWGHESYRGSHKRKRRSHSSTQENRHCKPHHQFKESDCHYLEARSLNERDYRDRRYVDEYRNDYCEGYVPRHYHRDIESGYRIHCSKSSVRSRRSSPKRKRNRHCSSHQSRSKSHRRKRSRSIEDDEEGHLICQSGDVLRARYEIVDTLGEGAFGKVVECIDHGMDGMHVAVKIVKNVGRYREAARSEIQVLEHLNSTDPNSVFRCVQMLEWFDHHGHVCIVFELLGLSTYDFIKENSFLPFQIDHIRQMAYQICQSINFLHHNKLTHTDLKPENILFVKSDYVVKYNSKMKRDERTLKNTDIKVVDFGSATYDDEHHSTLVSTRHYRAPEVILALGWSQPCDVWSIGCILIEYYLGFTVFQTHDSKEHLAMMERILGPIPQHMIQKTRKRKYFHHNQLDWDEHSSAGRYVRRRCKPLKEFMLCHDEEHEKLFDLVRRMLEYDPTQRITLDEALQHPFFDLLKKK
test_summary: qHTS Assay for Inhibitors of CDC-like Kinase 4 (Kinase-Glo Assay) (AID 1770); note: nearly all actives have a fitted effect of over 65% in size
details: recombinant Clk4, Kinase-Glo ATP depletion luminescence; series mostly up to 66.7 µM
Inconclusive results are not listed. Calls of active or inactive are those of the source. Calls come from the whole dose curve; as a rule, active = well fitted inhibition curve with a large enough effect; inconclusive = small, poorly fitted or top-dose-only effect; inactive = flat fitted curve, though single readings scatter.
Outcomes: active, inactive

chemical_smiles	target	group
Cc1noc(C)c1-c1ccc2ncnc(Nc3ccc(F)cc3)c2c1	Dual specificity protein kinase CLK4 (Homo sapiens) (UniProt Q9HAZ1)	active
CNc1cc(-c2ccccc2CN(C)C)ncn1	Dual specificity protein kinase CLK4 (Homo sapiens) (UniProt Q9HAZ1)	inactive
COc1ccc(-c2nc3cnc(Oc4cccc(Cl)c4)nc3n(C3CC3)c2=O)cc1	Dual specificity protein kinase CLK4 (Homo sapiens) (UniProt Q9HAZ1)	inactive
FC(F)(F)c1ccccc1-c1nc(NCCN2CCOCC2)c2ccccc2n1	Dual specificity protein kinase CLK4 (Homo sapiens) (UniProt Q9HAZ1)	inactive
CCNc1ncc2nc(-c3ccc(F)cc3)c(=O)n(CCOC)c2n1	Dual specificity protein kinase CLK4 (Homo sapiens) (UniProt Q9HAZ1)	inactive
Cn1c(=O)c(-c2cccs2)nc2cnc(OCc3ccccc3)nc21	Dual specificity protein kinase CLK4 (Homo sapiens) (UniProt Q9HAZ1)	inactive
COCCNc1nc(-c2ccccc2Cl)nc2ccccc12	Dual specificity protein kinase CLK4 (Homo sapiens) (UniProt Q9HAZ1)	active
CCNc1ncc2nc(-c3ccc(Cl)cc3)c(=O)n(CCC#N)c2n1	Dual specificity protein kinase CLK4 (Homo sapiens) (UniProt Q9HAZ1)	inactive
CCNc1ncc2nc(-c3ccccc3)c(=O)n(Cc3cccs3)c2n1	Dual specificity protein kinase CLK4 (Homo sapiens) (UniProt Q9HAZ1)	inactive
Fc1ccc(Nc2ncncc2-c2ccccc2C(F)(F)F)cc1	Dual specificity protein kinase CLK4 (Homo sapiens) (UniProt Q9HAZ1)	inactive
COc1ccc(Oc2ncc3nc(-c4cn(C)c5ccccc45)c(=O)n(C4CC4)c3n2)cc1	Dual specificity protein kinase CLK4 (Homo sapiens) (UniProt Q9HAZ1)	inactive

###

test_summary: HPAF-II 12hr Apoptosis Induction qHTS against the NCATS CANVASS Library (AID 1347358)
details: HPAF-II caspase-3/7 Caspase-Glo luminescence; series mostly up to 46.1 µM
Records with an inconclusive call do not appear. Calls of active or inactive are those of the source. Calls follow the shape of the dose curve; as a rule, active = well fitted curve in the direction sought with a large enough effect; inconclusive = small, poorly fitted or top-dose-only effect, or another doubt; inactive = no such curve, though single readings can be large or run the other way.
observable: caspase activation

molecule	result
[C-]#[N+][C@@]12C(=O)[C@@H]3[C@@H](O[C@@]4(C(=O)N(C)c5cccc1c54)C3(C)C)C(=O)[C@@]2(C)C=C	inactive
CC(CCC[C@]1(C)C(=O)C=C[C@@]23C[C@]4(C)O[C@@H](C[C@@H]4[C@H]2O)C31)C(=O)O (some centres not stated)	inactive
C/C=C/C1C=CC2CC(C)CC(C)C2C1C(=O)CC(=O)NC(CO)C/C=C/CCCCC (configuration not stated)	inactive
CCC(C)=C1OC(=O)[C@H](C)[C@H](O)[C@H](Cc2cccnc2)NC(=O)C(NC(=O)c2ncccc2O)C(C)OC1=O (some centres not stated)	inactive
C/C(=C\[C@H](C)C(=O)/C=C/CC1CC(=O)NC(=O)C1)[C@@H]1OC(=O)CCCC/C=C/[C@H](O)[C@@H](O)[C@@H]1C	inactive
O=C1CC2OCC=C3CN4C5CC3C2[C@@H]2N1c1ccccc1[C@]52C[C@@H]4C1=C[C@H]2C3CC4N(CC[C@@]45c4ccccc4N(C1=O)[C@@H]25)C/C3=C/CO (some centres not stated)	inactive
C=C1CCC2C(C)(C(=O)O)CCC(CC/C(C)=C/C(=O)NC(CCC(N)=O)C(=O)O)[C@@]2(C)C1 (some centres not stated)	inactive
